# credit: ChEMBL document CHEMBL4261487

method-description: Apparent permeability of the compound at pH 7.4
Assay type: ADME
cond: not told
assay-metric: Papp (×10⁻⁶ cm/s)
Numbers only, in ×10⁻⁶ cm/s.

CC(c1nc2cnc(N3CCC[C@@H](C(=O)N4CCCC4)C3)nc2[nH]1)n1cc(Cl)cn1 (single isomer, unassigned; diastereomer 1): 16.2

--- query ---
Find the recorded Papp belonging to `C[C@@H](c1nc2ccc(N3CCC[C@@H](C(=O)N4CCCC4)C3)nc2[nH]1)n1cc(Cl)cn1` and report it.
13.1

====

system-name: Diacylglycerol O-acyltransferase 1 (Homo sapiens, UniProt O75907)
Sequence (O75907 whole entry): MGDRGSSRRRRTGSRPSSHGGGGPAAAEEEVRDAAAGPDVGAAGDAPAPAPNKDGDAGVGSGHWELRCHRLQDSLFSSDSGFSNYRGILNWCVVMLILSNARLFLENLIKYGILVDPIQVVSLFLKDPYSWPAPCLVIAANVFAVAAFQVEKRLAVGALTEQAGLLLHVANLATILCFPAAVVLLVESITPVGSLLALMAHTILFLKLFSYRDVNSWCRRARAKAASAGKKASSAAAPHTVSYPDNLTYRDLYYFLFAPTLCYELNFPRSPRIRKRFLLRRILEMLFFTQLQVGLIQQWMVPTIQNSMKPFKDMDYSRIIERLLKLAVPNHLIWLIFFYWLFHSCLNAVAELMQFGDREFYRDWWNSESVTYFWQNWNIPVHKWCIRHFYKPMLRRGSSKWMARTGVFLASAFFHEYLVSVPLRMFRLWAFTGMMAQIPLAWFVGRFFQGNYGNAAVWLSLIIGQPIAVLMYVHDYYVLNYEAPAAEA
method-description: Inhibition of DGAT1 (unknown origin)
pIC50: −log10 of the molar value.
assay-metric: pIC50

# query: pIC50 of entry `C[C@@H](c1nc2ccc(N3CCC[C@@H](C(=O)N4CCCC4)C3)nc2[nH]1)n1cc(Cl)cn1`
< 4.30

====

Tested on: Canis familiaris
method-description: Toxicity in telemetered beagle dog assessed as increase in heart rate at 25 mg/kg administered via oral gavage measured over 24 hrs
Format: organism-based, Canis lupus familiaris
cond: in vivo
assay-metric: Activity

Query (compound): `CS(=O)(=O)O.O=C([C@@H]1CCCN(c2ccc3nc(C4(n5cc(Cl)cn5)CC4)[nH]c3n2)C1)N1CCCC1` ; field requested: Activity
6 to 20 bpm

====

method-description: Fraction unbound in rat plasma
Assay type: ADME, cell-free
assay-metric: fraction unbound
Give bare numbers.

Quick one: give me fraction unbound for each item below, same order please.
1. CC(c1nc2cnc(N3CCC[C@@H](C(=O)N4CCCC4)C3)nc2[nH]1)n1cc(Cl)cn1 (single isomer, unassigned; diastereomer 1)
2. C[C@@H](c1nc2ccc(N3CCC[C@@H](C(=O)N4CCCC4)C3)nc2[nH]1)n1cc(Cl)cn1

0.18
0.14

====

system-name: UniProtKB A0A8I3NDW2
Sequence (A0A8I3NDW2 whole entry): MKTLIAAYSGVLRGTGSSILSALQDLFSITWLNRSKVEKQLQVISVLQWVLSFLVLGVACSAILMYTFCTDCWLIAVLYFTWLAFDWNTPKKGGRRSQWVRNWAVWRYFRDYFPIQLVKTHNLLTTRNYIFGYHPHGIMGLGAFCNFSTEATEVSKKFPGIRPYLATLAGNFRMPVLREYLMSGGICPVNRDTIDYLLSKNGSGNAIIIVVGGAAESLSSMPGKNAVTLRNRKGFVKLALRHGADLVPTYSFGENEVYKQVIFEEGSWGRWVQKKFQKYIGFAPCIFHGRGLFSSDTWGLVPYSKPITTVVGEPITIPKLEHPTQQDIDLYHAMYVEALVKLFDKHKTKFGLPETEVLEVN
Give measured IC50 for each item. Keep answers brief.
Note: state the figure and append the unit.

CC(c1nc2cnc(N3CCC[C@@H](C(=O)N4CCCC4)C3)nc2[nH]1)n1cc(Cl)cn1 (single isomer, unassigned; diastereomer 1): 0.053 µM

Consider the record given below.
Item under review: `C[C@@H](c1nc2ccc(N3CCC[C@@H](C(=O)N4CCCC4)C3)nc2[nH]1)n1cc(Cl)cn1` . Reported IC50?
0.041 µM

====

method-description: Half life in beagle dog at 1 mg/kg, iv
Type: ADME, organism-based, Canis lupus familiaris
cond: in vivo
assay-metric: half-life (h)
Answers are plain numbers, in h.

CC(c1nc2cnc(N3CCC[C@@H](C(=O)N4CCCC4)C3)nc2[nH]1)n1cc(Cl)cn1 (single isomer, unassigned; diastereomer 1): 1.1

We next turn to a different compound, shown below.
Sample `C[C@@H](c1nc2ccc(N3CCC[C@@H](C(=O)N4CCCC4)C3)nc2[nH]1)n1cc(Cl)cn1` — what was its half-life?
3.2
